Hello, the source for this data is patent US20240132589A1, in case you need it.

- measuredOn: T1, Human LILRB2 on stably transduced HEK293T cells (human, UniProt Q8N423 22-597)
- T1 construct: Lentiviral transduction (G&P Biosciences LTV2992); also called HEK293T-LILRB2; LILRB2-expressing HEK293T cells
- measurementProtocol: flow cytometry, HEK293T cells stably expressing human LILRB2
Listed below: BMAX [gMFI] values for each entry.
Quick reminder: number only, in gMFI, skip the unit.

binder	readoutValue
B2H4-41 (antibody, V domains shown, Humanized variant, human IgG4 / kappa) VH: EVQLLESGGRLVQPGTSLRLSCAVSGFSLSTYAMSWVRQAPGKGLEWIGWIYNDGSTYYAAWAKGRFTISKDTSKTTLYLQMNSLTVEDTATYFCAREGDYIGYFNIWGQGTLVTVSS VL: DIQMTQSPSSLSASVGDRVTITCQASQSIGSNLAWYQLKPGQRPKLLIYAAATLASGVPSRFKGSGSGTDFTLTISSLQSEDAATYYCQSYVSGSSDVAFGGGTEVVVK	10100

Okay, next one:
Prompt line: So what's the measured BMAX [gMFI] for this one? B2H4-51 (antibody, V domains shown, Humanized variant, human IgG4 / kappa) VH: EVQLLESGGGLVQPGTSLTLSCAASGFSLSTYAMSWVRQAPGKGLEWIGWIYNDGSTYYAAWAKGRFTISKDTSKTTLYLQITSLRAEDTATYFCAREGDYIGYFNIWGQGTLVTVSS VL: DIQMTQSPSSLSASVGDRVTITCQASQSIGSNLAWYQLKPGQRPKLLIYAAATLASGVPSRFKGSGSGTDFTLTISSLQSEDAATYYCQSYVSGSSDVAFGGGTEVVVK
Response line: 10700
